Test system: SK-MEL-2 melanoma
protocolDescription: NCI tumour cell line growth inhibition, 48 h
endpointName: TGI (µM)
Report as a plain number; the unit µM is understood.

Would you please look over these solved cases?
molecule	observedValue
O=C(COc1cccc(/C=C2\CSc3ccccc3C2=O)c1)c1ccc(Cl)cc1	3.45
NC1=Nc2cc(OCCCN3Cc4ccccc4C3)c(OCC3CC3)cc2C12CCCC2	4.7
CNCCCNCCCN1C(=O)c2ccc3c4c(ccc(c24)C1=O)C(=O)N(CCCNCc1ccccc1OC)C3=O	3.97
CC(=O)OCC1OC(O/C=C(\CN=[N+]=[N-])C(C)=O)C(OC(C)=O)C(OC(C)=O)C1OC(C)=O (configuration not stated)	37.2
O=C1NN(c2ccccc2)C(=O)/C1=C/c1ccc(Br)o1	44.7
COc1cc2c(c(OC)c1OC)-c1ccc(OC)c(=O)cc1[C@@H](N(C)C=O)CC2	0.0487

Asked: I am curious: what TGI value has been reported for c1ccc(N=C2SC3=NCCN3C2=Nc2ccccc2)cc1 ?
Given back: 76.5

Asked: Record request: TGI value, item CC(C)c1ccc(NC(=S)NC(=O)c2ccccc2)cc1
Given back: 35.8

Asked: Can you share its TGI? I mean this molecule: COc1ccc2c(c1)/C(=N/OC(C)=O)c1c-2c(=O)[nH]c2ccccc12
Given back: 29

Asked: Recorded TGI for CC1(C)CC(Nc2ccc(Nc3ccccc3)cc2)CC(C)(C)N1 , please?
Given back: 52.9

Source of measurements: PubChem BioAssay (NCI)
